Experiment: Growth inhibition, sulforhodamine B (SRB) assay, A431
Format: cell-based
Details: human, A431 cervix carcinoma cells, A431, 96 hr incubation, tested as salts, read-out: Cytotoxicity - IC50 A431
parameter measured: IC50 at 96 h (µM)

- chem smiles: "CC1(C)CC2CC(C)(CN2CCC(=O)Nc2ccc3c(Nc4ccc(N)cc4)c4ccc(NC(=O)CCN5CC6(C)CC5CC(C)(C)C6)cc4nc3c2)C1"
  unit label: "µM"
  op: "="
  result: 2.5
- chem smiles: "CC1(C)CC2CC(C)(CN2CCC(=O)Nc2ccc3c(=O)c4ccc(NC(=O)CCN5CC6(C)CC5CC(C)(C)C6)cc4[nH]c3c2)C1"
  unit label: "µM"
  op: "="
  result: 10
- chem smiles: "COCCNc1c2ccc(NC(=O)CCN3CCCC3)cc2nc2cc(NC(=O)CCN3CCCC3)ccc12"
  unit label: "µM"
  op: "="
  result: 10
- chem smiles: "Nc1ccc(Nc2c3ccc(NC(=O)CCN4CCCC4)cc3nc3ccc(NC(=O)CCN4CCCC4)cc23)cc1"
  unit label: "µM"
  op: ">"
  result: 25
- chem smiles: "CN(C)c1ccc(Nc2c3ccc(NC(=O)CCN4CCCC4)cc3nc3cc(NC(=O)CCN4CCCC4)ccc23)cc1"
  unit label: "µM"
  op: "="
  result: 15.8
- chem smiles: "O=C(CCN1CCC(O)CC1)Nc1ccc2nc3ccc(NC(=O)CCN4CCC(O)CC4)cc3c(O)c2c1"
  unit label: "µM"
  op: ">"
  result: 25
